# ASSAY_INFO: Stability of compound in simulated gastric fluid assessed as parent compound remaining at pH 1.6 measured after 4 hrs by HPLC analysis
# Type: ADME
# COND: read-out: Stability
Listed next: entries and their corresponding remaining at 4 h.
Unit % implied. Number only.

Use these answered entries as a reference point.
>>> reading("Cc1nc2c([N+](=O)[O-])csc2c(=O)n1CCCc1ccccc1")
45
>>> reading("O=c1[nH]c(/C=C/c2ccc(F)cc2)nc2c([N+](=O)[O-])csc12")
50

Moving on to the next compound.
# get_value(readout='remaining at 4 h', item= Cc1nc2c([N+](=O)[O-])csc2c(=O)[nH]1 )
90
